// provenance: patent US20140186359A1

Target: T1, human CAPRIN-1 expressed on the surface of human cancer cells (human, UniProt Q14444 2-709); further: test concentration or dose not given here
T1 sequence: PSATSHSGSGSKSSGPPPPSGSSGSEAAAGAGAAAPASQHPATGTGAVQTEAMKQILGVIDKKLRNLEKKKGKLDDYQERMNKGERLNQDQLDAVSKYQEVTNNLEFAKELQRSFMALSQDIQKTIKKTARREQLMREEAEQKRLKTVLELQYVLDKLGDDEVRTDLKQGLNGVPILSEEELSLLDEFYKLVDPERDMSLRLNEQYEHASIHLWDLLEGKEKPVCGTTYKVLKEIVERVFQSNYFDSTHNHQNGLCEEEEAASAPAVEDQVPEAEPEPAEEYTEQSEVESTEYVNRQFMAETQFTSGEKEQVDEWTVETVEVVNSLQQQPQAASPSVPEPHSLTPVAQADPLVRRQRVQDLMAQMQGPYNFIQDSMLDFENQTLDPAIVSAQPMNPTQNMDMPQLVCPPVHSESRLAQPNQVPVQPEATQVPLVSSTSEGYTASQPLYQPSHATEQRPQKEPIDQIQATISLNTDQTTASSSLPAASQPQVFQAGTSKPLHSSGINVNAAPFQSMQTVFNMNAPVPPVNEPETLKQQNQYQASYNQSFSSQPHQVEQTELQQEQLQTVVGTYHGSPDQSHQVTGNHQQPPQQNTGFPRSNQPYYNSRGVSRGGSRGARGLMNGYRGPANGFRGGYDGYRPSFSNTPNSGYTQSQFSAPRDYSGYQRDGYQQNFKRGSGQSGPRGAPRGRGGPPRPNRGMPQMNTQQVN
Test: cell-based or functional assay
Measurement kind: ADCC cytotoxic activity (51Cr release) against MCF7

A selection of reference data follows.
# Binder, Assay value
data = [
    ("human-chicken chimeric monoclonal antibody #1 (antibody, V domains shown) VH: AVTLDESGGGLQTPGGALSLVCKASGFTFRSHSMFWVRQAPGKGLEYVAGIYGVGRSIRYGSAVKGRATMSRDNGQSTVRLQLNNLRAEDTATYYCAKSGYFSNSRYWDSGAYFIDAWGHGTEVIVS VL: ALTQPASVSANPGETVEITCSGGYSNYGWYQQKSPGSAPVTVIYYNDKRPSDIPSRFSGSKSGSTATLTITGVQAEDEAVYFCGGYDSSTDAGIFGAGTTLTV", "≥ 30%"),
    ("human-mouse chimeric comparative monoclonal antibody 7 (antibody, human IgG1, kappa, V domains shown) VH: LQESGAELARPGASVKLSCKASGYTFTSYWMQWVKQRPGQGLEWIGAIYPGDGDTRYTQKFKGKATLTADKSSSTAYMQLSSLASEDSAVYYCARGEYGNYFAYWGQGTTVTVSS VL: TSDASLGERVTITCKASQDINSYLSWFQQKPGKSPKTLIYRANRLVDGVPSRFSGSGSGQDYSLTISSLEYEDMGIYYCLQYDEFPLTFGGGTKLEIKQ", "< 5%"),
]

Now turn to the next binder.
# input Name the reported ADCC cytotoxic activity (51Cr release) against MCF7 value associated with the binder human-chicken chimeric monoclonal antibody #2 (antibody, V domains shown) VH: AVTLDESGGGLQTPGGALSLVCKASGFTFRSHSMFWVRQAPGKGLEYVAGIYGVGRSIRYGSAVKGRATMSRDNGQSTVRLQLNNLRAEDTGTYYCAKSGYFSNRRYWDSGAYFIDAWGHGTEVIVS VL: ALTQPASVSANLGGTVEITCSGGYSNYGWYQQKSPGSAPVTVIYYNDKRPSDIPSRFSGSKSGSTGTLTITGVRAEDEAVYYCGGYDSSTDAGIFGAGTTLTV
# output ≥ 30%
